Measured TGI accompanies every entry in the list below.
- Test system: HOP-62 NSCLC
- test_name: NCI tumour cell line growth inhibition, 48 h

| compound | TGI |
| --- | --- |
| CC[C@]12C=CCN3CC[C@]4(C(=C(C(=O)OC)C1)Nc1cc(OC)c(OC(C)=O)cc14)[C@@H]32 | 14.1 µM |
| O=C(O)c1ccccc1C1CCCc2c1[nH]c1ccccc21 (stereo not given) | > 100 µM |
| c1ccc(N=C2SC(c3ccccc3)(c3ccccc3)c3ccccc32)cc1 | > 100 µM |
| Cc1cccc(NC(=O)c2sc3nc4c(cc3c2N)CCCC4)c1 | 36.8 µM |
| O=C1/C(=C/c2ccc3c(c2)CCC3)Cc2cc3c(cc21)CCC3 | > 100 µM |
| O=C1c2ccccc2C(=O)N1C/C=N/NS(=O)(=O)c1ccc2ccccc2c1 | > 100 µM |
| C[N+]1(C)C/C(=C/c2ccc(F)cc2)C(=O)/C(=C\c2ccc(F)cc2)C1 | > 100 µM |
| COc1nc(NC2OC(COC(C)=O)C(OC(C)=O)C(OC(C)=O)C2OC(C)=O)c(N=CC=Nc2c(NC3OC(COC(C)=O)C(OC(C)=O)C(OC(C)=O)C3OC(C)=O)nc(OC)n(C)c2=O)c(=O)n1C (stereo not given) | > 86.6 µM |
| CCc1cccc(C(C)C)c1NC(=O)C(=O)C1C(=O)NC(=O)NC1=O | > 100 µM |
| CCCCC1=C(Br)C(=C(Br)Br)OC1=O | 19 µM |
| C=CCN(C(=O)OC(C)(C)C)C1=CC2C(C)=CN(S(=O)(=O)c3ccccc3)C2C(OCc2ccccc2)=C1 (stereo not given) | > 100 µM |
| COc1ccc(C(OCC2OC(n3cnc4c(=O)n(Cc5ccccc5[N+](=O)[O-])nnc43)C(O)C2O)(c2ccccc2)c2ccc(OC)cc2)cc1 (stereo not given) | > 100 µM |
| CN(C)c1ccc2nc3ccc(=N)cc-3sc2c1 | 51.5 µM |
| Cc1ccc(O)c(N=Nc2c(O)cc(S(=O)(=O)O)c3ccccc23)c1 | > 100 µM |
| CN(C)CCCNC(=O)CCNC(=O)c1cc(NC(=O)c2cc(NC(=O)c3cc(NC(=O)CCCNC(=O)c4cc(NC(=O)c5cc(NC(=O)c6nccn6C)cn5C)cn4C)cn3C)cn2C)cn1C | > 100 µM |
| COc1ccc2[nH]c3c(C)c4ccnc(NCCCN(C)CCCNc5ccc6nnn7c8ccccc8c(=O)c5c67)c4c(C)c3c2c1 | 2.05 µM |
| CC(=O)Nc1ccc(-c2csc(Nc3ccc(-c4csc(-c5ccccc5)n4)cc3)n2)cc1 | > 50 µM |
| COc1cc(/C=C2\CC3C4CCC5=CC(=O)CC[C@]5(C)C4CC[C@]3(C)C2=O)ccc1OCCCn1ccnc1 (stereo not given in full) | 25.2 µM |
| O=C1CCCn2c(nc3ccccc32)N1 | > 100 µM |
| CCOC1CN(C)C(=Nc2cccc3ccccc23)S1 (stereo not given) | > 10 µM |
| CC#Cc1nc2ccccc2c(=O)[nH]1 | 9.43 µM |
| O=C1Nc2c(Cl)cc(Cl)cc2/C1=N/N=C/c1ccccc1O | 41.3 µM |
| OCCNc1ncnc2nc[nH]c12 | > 100 µM |
| CC12CCC(C(=O)n3c1nc1ccccc13)C(C)(C)O2 (stereo not given) | > 100 µM |
| COC(=O)C1=C(C)NC(C)=C(C(=O)OC)C1c1ccc(NO)cc1 | 32.9 µM |
| O=c1nc(Oc2c(F)c(F)c(F)c(F)c2F)ccn1C1OC(CO)C(O)C1O (stereo not given) | > 100 µM |
| Nc1ccc2c(c1)Cc1cc(Cl)c(Cl)cc1-2 | > 100 µM |
| CC(C)=CCC[C@@H](C)C1=C(O)C(c2c(I)c(=O)n(C)c(=O)n2C)=C(C)C(=O)C1=O | > 100 µM |
| COC(=O)CNC(=O)c1cc(C)cc2c1Oc1c(cc(C)cc1C(=O)NCC(=O)OC)S2 | > 100 µM |
| COc1ccc(C2=NN(C(=O)c3ccc(Cl)cc3)C(O)(c3cc(F)c(Cl)cc3Cl)C2)cc1OC (stereo not given) | > 100 µM |
